The measurements presented in this section are drawn from PubChem BioAssay (EPA / NIEHS).

- PROTOCOL NOTES: CEETOX_H295R_CORTIC: CeeTox H295R High-throughput Steroidogenesis Assay for Corticosterone (CORTIC) (AID 2283437);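 further: corticosterone secreted into medium quantified by mass spectrometry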
- EXPERIMENTAL CONDITIONS: actives raise or lower the signal
- Protocol: CEETOX_H295R is a cell-based, multiplexed-readout assay that uses H295R, a human adrenal gland cell line, with measurements taken at 48 hours after chemical dosing in a 96-well plate.CEETOX_H295R_CORTIC is one of 23 assay component(s) measured or calculated from the CEETOX_H295R assay. […] This assay endpoint, CEETOX_H295R_CORTIC, was analyzed with bidirectional fitting relative to DMSO as the negative control and baseline of activity. […]
Active and inactive are the calls of the source. How the source made its calls: active means hit-call score of the fitted dose curve at least 0.9, where 1 is the maximum; inactive means score below 0.9.
Outcome codes: yes (1) for active, no (0) for inactive

1. CCCCCc1ccc(O)cc1 : yes (1)
2. CCCCCC(C)OC(=O)COc1ccc(Cl)c2cccnc12 (stereo not drawn) : no (0)
3. O=C(NCc1ncc(C(F)(F)F)cc1Cl)c1c(Cl)cccc1Cl : no (0)
